Where these numbers come from: PubChem BioAssay AID1494157

experiment: Confirmatory qHTS for inhibitors of MERS-S pseudo-typed particle cell entry; details: MERS-S pseudotyped particle entry, luciferase reporter; series mostly up to 57.1 µM
Results filed as inconclusive are left out. Calls of active or inactive are those of the source. Calls come from the whole dose curve.
observable: Potency

For orientation, consider the following solved cases.
compound: C=C1c2c(Cl)ccc(O)c2C(O)=C2C(=O)[C@@]3(O)C(O)=C(C(N)=O)C(=O)[C@@H](N(C)C)[C@@H]3[C@@H](O)[C@H]12
Potency: 19.2 µM (active)
//
compound: COc1cccc2c1C(=O)c1c(O)c3c(c(O)c1C2=O)C[C@@](O)(C(=O)CO)C[C@@H]3O[C@H]1C[C@H](N)[C@@H](O)[C@H](C)O1
Potency: 3.83 µM (active)
//
compound: N=C(N)c1ccc(OCCCCCOc2ccc(C(=N)N)cc2)cc1
Potency: 12.1 µM (active)
//
compound: Cc1nn(C)c2c1C(c1ccccc1F)=NCC(=O)N2C
Potency: 10.8 µM (active)
//
compound: Cc1nnc2n1-c1sc(CCc3ccc(CC(C)C)cc3)cc1C(c1ccccc1Cl)=NC2C (stereo unspecified)
Potency: 27.1 µM (active)
//
compound: CCCCCCCCCCCCOCCOCCOCCOCCOCCOCCOCCOCCOCCO
Potency: 7.64 µM (active)
//
compound: CN1CCN(CCC=C2c3ccccc3Sc3ccc(S(=O)(=O)N(C)C)cc32)CC1
Potency: 6.07 µM (active)
//
compound: CC(C)OC(=O)[C@H](C)N[P@](=O)(CO[C@H](C)Cn1cnc2c(N)ncnc21)Oc1ccccc1
Potency: 0.0152 µM (active)
//
compound: Nc1ccn([C@@H]2O[C@H](CO)[C@@H](O)C2(F)F)c(=O)n1
Potency: 0.215 µM (active)
//
compound: CN1CCC(=C2c3ccccc3CCc3sccc32)CC1
Potency: 15.2 µM (active)

Here is the next item to consider.
Find the measured Potency of CO[C@@]12[C@H](COC(N)=O)C3=C(C(=O)C(C)=C(N)C3=O)N1C[C@@H]1N[C@@H]12 and report it.
0.961 µM (active)
